- ASSAY_PROTOCOL: in vitro
- CONDITION_DESCRIPTION: African green monkey
Counter-ions that a name gives are not always drawn.
METRIC: cytotoxicity

Quote cytotoxicity reported for CCn1c(-c2nonc2N)nc2cnc(Oc3cccc(NC(=O)c4ccc(OCCN5CCOCC5)cc4)c3)cc21 [GSK-269962A] please. 56.8%

Quote cytotoxicity reported for O=C(Nc1ccc(-c2ccnc(Nc3ccc(N4CCOCC4)cc3)n2)cc1)C1CCCN1 (stereo not drawn) please. 61.8%

Quote cytotoxicity reported for Cn1c(Nc2ccc(C(F)(F)F)cc2)nc2cc(Oc3ccnc(-c4ncc(C(F)(F)F)[nH]4)c3)ccc21 please. 92.7%

Quote cytotoxicity reported for Cc1ccc(NC(=O)c2ccc(CN3CCN(C)CC3)cc2)cc1Nc1nccc(-c2cccnc2)n1 [Imatinib, reference compound] please. < 30%

Quote cytotoxicity reported for CN1CCC(CN2c3ccccc3Sc3ccccc32)C1 (stereo not drawn) [Methdilazine hydrochloride, reference compound] please. < 30%

Quote cytotoxicity reported for CN(C)C(=O)C(CCN1CCC(O)(c2ccc(Cl)cc2)CC1)(c1ccccc1)c1ccccc1 [Loperamide hydrochloride, reference compound] please. < 30%

Quote cytotoxicity reported for COc1ccc(-c2csc(NC(=O)[C@H]3CCCCN3S(=O)(=O)c3ccc(C)cc3)n2)cc1 please. 0%

Quote cytotoxicity reported for CC#C[C@@H](CC(=O)O)c1ccc(OCc2cccc(-c3ccc(C(F)(F)F)cc3)c2)cc1 please. 20.2%

Quote cytotoxicity reported for CC(=O)OC[C@]12C[C@H](OC(=O)CC(C)C)C(C)=C[C@H]1O[C@@H]1[C@H](O)[C@@H](O)[C@@]2(C)[C@]12CO2 please. 98%

Quote cytotoxicity reported for CC(=O)O[C@@H]1C[C@H](O)[C@@]23CO[C@@H](O)[C@]1(C)[C@@H]2C[C@@H](O)[C@]1(C)[C@@H]3C(=O)[C@H](OC(C)=O)[C@@]2(C)[C@H](c3ccoc3)C[C@H]3O[C@]321 please. 40.9%

Quote cytotoxicity reported for CN(C)CCC=C1c2ccccc2CCc2ccccc21 [Amitriptyline hydrochloride] please. 0%

Quote cytotoxicity reported for C[C@@H](C(=O)Nc1ccc(Cl)cc1)C1CCC(c2ccnc3ccc(F)cc23)CC1 (stereo partly drawn) please. 37.7%

Quote cytotoxicity reported for CCN(CC)CCN(Cc1ccc(-c2ccc(C(F)(F)F)cc2)cc1)C(=O)Cn1c(SCc2ccc(F)cc2)nc(=O)c2c1CCC2 please. 102%

Quote cytotoxicity reported for CC(C)COCC(CN(Cc1ccccc1)c1ccccc1)N1CCCC1 (stereo not drawn) please. 25.4%

Quote cytotoxicity reported for O=C1Nc2ccc(Cl)cc2[C@@](C#CC2CC2)(C(F)(F)F)O1 please. 24.3%

Quote cytotoxicity reported for COc1cc(O)c2c(c1)[C@H]1O[C@@H]1C[C@H](O)[C@H](O)C(=O)/C=C\C[C@H](C)OC2=O please. 60.1%

Quote cytotoxicity reported for Clc1ccc2c(c1)C(N1CCNCC1)=Nc1ccccc1O2 please. 13.9%

Quote cytotoxicity reported for CNCCC(Oc1ccc(C(F)(F)F)cc1)c1ccccc1 (racemic) [(+/-) -Fluoxetine, reference compound] please. < 30%

Quote cytotoxicity reported for CC(C)[C@@]1(NC(=O)[C@@H]2C[C@@H]3c4cccc5[nH]cc(c45)C[C@H]3N(C)C2)O[C@@]2(O)[C@@H]3CCCN3C(=O)[C@H](Cc3ccccc3)N2C1=O [Dihydroergocristine] please. 11.5%

Quote cytotoxicity reported for Cc1c(O)cccc1C(=O)N[C@@H](CSc1ccccc1)[C@H](O)CN1C[C@H]2CCCC[C@H]2C[C@H]1C(=O)NC(C)(C)C [Nelfinavir Mesylate] please. 96.9%

Quote cytotoxicity reported for NC(=O)c1cccc2cn(-c3ccc([C@@H]4CCCNC4)cc3)nc12 please. 24.3%

Quote cytotoxicity reported for c1ccc(-c2ccc(C(c3ccccc3)n3ccnc3)cc2)cc1 (stereo not drawn) please. 24.5%

Quote cytotoxicity reported for COC(=O)C1=C(C)NC(C)=C(C(=O)OCCN(C)Cc2ccccc2)C1c1cccc([N+](=O)[O-])c1 (stereo not drawn) please. 32.8%

Quote cytotoxicity reported for O=c1ccc2ccc(OCCCCN3CCN(c4cccc5sccc45)CC3)cc2[nH]1 please. 25.1%

Values were extracted from paper PMC7942396.
